Below, each entry is listed alongside its reported Ki.
Assay: Displacement of [3H]-prazosin from adrenergic alpha 1 receptor in pig brain cortical membranes after 50 mins by microbeta counting analysis
Type: ADME, cell membranes, Sus scrofa
State the answer as a number, implicitly in nM.

Below: 4 molecules and their reported Ki.
COc1ccc(-c2ccccc2N2CCN(CCCCCC(=O)NCc3ccc(C#N)cc3)CC2)cc1 30
O=C(CCOCCN1CCN(c2ncccc2-c2ccccc2)CC1)NCc1ccc(C(F)(F)F)cc1 1220
COc1ccc(-c2ccccc2N2CCN(CCCCCC(=O)N[C@@H](C)c3ccc(C#N)cc3)CC2)cc1 12.9
CN(C)Cc1ccc(CNC(=O)CCCCCN2CCN(c3ccccc3-c3ccccc3)CC2)cc1 23

Let us move to another entry and its Ki.
// returns reported Ki for input `N#Cc1ccc(CNC(=O)CCOCCN2CCN(c3cccnc3-c3ccccc3)CC2)cc1`
310

====

Assay: Stability in mouse liver microsomes assessed as oxidative metabolism by measuring drug recovery at 10 uM preincubated for 10 mins followed by NADPH addition measured after 30 mins by liquid chromatographic method
Assay type: ADME
Details: liver microsomes, read-out: Drug recovery
Property Label: remaining at 0.5 h, 10 µM (%)
// return numeric value only (unit: %, not printed)

N#Cc1ccc(CNC(=O)CCOCCN2CCN(c3cccnc3-c3ccc(F)cc3)CC2)cc1 9
O=C(CCCCCN1CCN(c2ccccc2-c2ccccc2)CC1)NCc1ccc(OCCN2CCOCC2)cc1 5
COc1ccc(-c2ccccc2N2CCN(CCCCCC(=O)N[C@@H](C)c3ccccc3)CC2)cc1 21
N#Cc1ccc(CNC(=O)CCCCCN2CCN(c3ccccc3-c3ccccc3)CC2)cc1 20
N#Cc1ccc(CNC(=O)CCCCCN2CCN(c3ccc(F)cc3-c3ccc(C#N)cc3)CC2)cc1 22

Please give the measured remaining at 0.5 h, 10 µM for this compound: `O=C(CCOCCN1CCN(c2ncccc2-c2ccc(F)cc2)CC1)NCc1ccc(C(F)(F)F)cc1`
2

Reported remaining at 0.5 h, 10 µM, compound `N#Cc1ccc(CNC(=O)CCOCCN2CCN(c3ncccc3-c3ccc(F)cc3)CC2)cc1` : ____
1

Which remaining at 0.5 h, 10 µM value belongs to `COc1ccc(-c2ccccc2N2CCN(CCOCCC(=O)NCc3cccnc3)CC2)cc1` ?
23

====

Experiment: Elimination half life in CD-1 mouse plasma at 10 mg/kg, ip administered as single dose by LC/MS analysis
Format: ADME, organism-based
Details: read-out: beta t1/2 (converted)
Property Label: half-life (h)
Please reply with the bare figure in h and do not write the unit itself.

Which half-life value is on record for `COc1ccc(-c2cc(F)ccc2N2CCN(CCCCCC(=O)NCc3ccc(C#N)cc3)CC2)cc1` ?
1.07

====

Assay: Stability in mouse liver microsomes assessed as oxidative metabolism by measuring drug recovery at 10 uM preincubated for 10 mins followed by NADPH addition measured after 30 mins by liquid chromatographic method
Type: ADME
Conditions: liver microsomes, read-out: Drug recovery
Property Label: remaining at 0.5 h, 10 µM

Below: 3 compounds and their reported remaining at 0.5 h, 10 µM.
COc1ccc(-c2ccccc2N2CCN(CCCCCC(=O)NCc3ccc(OCCN4CCOCC4)cc3)CC2)cc1 15%
COCOc1ccc(CNC(=O)CCCCCN2CCN(c3ccccc3-c3ccc(OC)cc3)CC2)cc1 8.3%
COCOc1ccc(CNC(=O)CCCCCN2CCN(c3ccccc3-c3ccccc3)CC2)cc1 5.4%

Quick one: remaining at 0.5 h, 10 µM for `C[C@H]1CN(c2ccccc2-c2ccccc2)CCN1CCCCCC(=O)NCc1ccccc1` ?
5%

Recorded remaining at 0.5 h, 10 µM of `CN(C)Cc1ccc(CNC(=O)CCCCCN2CCN(c3ccccc3-c3ccccc3)CC2)cc1` , please.
3 to 5%

Look up remaining at 0.5 h, 10 µM: `O=C(CCOCCN1CCN(c2ncccc2-c2ccccc2)CC1)NCc1ccc(C(F)(F)F)cc1`
1%

Need remaining at 0.5 h, 10 µM of `O=C(CCCCCN1CCN(c2ccccc2-c2ccccc2)CC1)NCc1ccc(OCCO)cc1` , thanks.
10%

Requested field: remaining at 0.5 h, 10 µM. Item: `O=C(CCOCCN1CCN(c2cccnc2-c2ccc(F)cc2)CC1)NCc1ccc(C(F)(F)F)cc1`
6%

Can you look up the measured remaining at 0.5 h, 10 µM of `C[C@H](NC(=O)CCCCCN1CCN(c2ccccc2-c2ccccc2)CC1)c1ccccc1` for me?
16%

Please look up its remaining at 0.5 h, 10 µM: `O=C(CCCCCN1CCN(c2ccccc2-c2ccccc2)CC1)NCc1ccccc1`
< 3%

What measured remaining at 0.5 h, 10 µM goes with `COc1ccc(-c2ccccc2N2CCN(CCOCCC(=O)NCc3ccccn3)CC2)cc1` ?
19%

====

Test: Half life in ip dosed mouse
Settings: in vivo
Property Label: half-life (min)
Express your answer in min, writing the number without its unit.

# query: half-life of entry `O=C1CCc2ccc(OCCCCN3CCN(c4cccc(Cl)c4Cl)CC3)cc2N1`
264

====

Assay: Elimination half life in CD-1 mouse brain at 10 mg/kg, ip administered as single dose by LC/MS analysis
Assay type: ADME, organism-based
Settings: read-out: beta t1/2 (converted)
Property Label: half-life (h)
Use h as the unit, but write only the number.

Consider the compound shown here: `COc1ccc(-c2cc(F)ccc2N2CCN(CCCCCC(=O)NCc3ccc(C#N)cc3)CC2)cc1` What is its recorded half-life?
1.02

====

Biological target: UniProt:P08908
Sequence (P08908 whole entry): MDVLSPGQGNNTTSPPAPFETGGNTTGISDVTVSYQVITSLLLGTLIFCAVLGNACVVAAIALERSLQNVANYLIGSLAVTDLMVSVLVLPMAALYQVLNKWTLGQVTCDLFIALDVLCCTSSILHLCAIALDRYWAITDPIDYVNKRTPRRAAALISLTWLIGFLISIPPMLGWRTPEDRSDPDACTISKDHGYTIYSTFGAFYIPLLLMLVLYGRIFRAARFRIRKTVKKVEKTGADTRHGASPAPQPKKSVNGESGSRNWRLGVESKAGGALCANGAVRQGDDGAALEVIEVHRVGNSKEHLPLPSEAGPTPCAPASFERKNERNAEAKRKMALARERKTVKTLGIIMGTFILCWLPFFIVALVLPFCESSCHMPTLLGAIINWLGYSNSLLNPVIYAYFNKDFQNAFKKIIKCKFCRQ
Assay: Displacement of [3H]-8-OH-DPAT from human 5-HT1A receptor expressed in HEK293 cell membranes after 1 hr by microbeta counting analysis
Property Label: log10 of Ki (log10 of the value in nM)
Log10 applied to Ki; unit prior to transform: nM.

O=C(CCOCCN1CCN(c2cccnc2-c2ccc(F)cc2)CC1)NCc1ccc(C(F)(F)F)cc1 3.78
O=C(CCCCCN1CCN(c2ccccc2-c2ccccc2)CC1)NCc1ccc(OCCN2CCOCC2)cc1 2.20
O=C(CCOCCN1CCN(c2ncccc2-c2ccccc2)CC1)NCc1ccc(C(F)(F)F)cc1 2.56
O=C(CCOCCN1CCN(c2ccccc2-c2ccccc2)CC1)NCc1ccncc1 3.02
COc1ccc(-c2ccccc2N2CCN(CCCCCC(=O)N[C@@H](C)c3ccccc3)CC2)cc1 2.01
COc1ccc(-c2ccccc2N2CCN(CCCCCC(=O)N[C@@H](C)c3ccc(C#N)cc3)CC2)cc1 2.17
COc1ccc(-c2ccccc2N2CCN(CCCCCC(=O)NCc3ccc(OCCO)cc3)CC2)cc1 2.18
C[C@@H]1CN(c2ccccc2-c2ccccc2)CCN1CCCCCC(=O)NCc1ccccc1 2.00

What value of measured log10 of Ki is listed for `COCOc1ccc(CNC(=O)CCCCCN2CCN(c3ccccc3-c3ccc(OC)cc3)CC2)cc1` ?
2.20

====

Test: Retention factor, logKw of compound in MeOH/0.01 M phosphate buffer at pH 7.4 by RP-HPLC method
Type: physicochemical
Property Label: logKw
Note: the reply should be a number with no unit written.

Record excerpt, results attached:
COc1ccc(-c2ccccc2N2CCN(CCCCCC(=O)N[C@H](C)c3ccc(C#N)cc3)CC2)cc1 0.54
N#Cc1ccc(CNC(=O)CCOCCN2CCN(c3ncccc3-c3ccccc3)CC2)cc1 0.11
N#Cc1ccc(CNC(=O)CCOCCN2CCN(c3ncccc3-c3ccc(F)cc3)CC2)cc1 0.15
N#Cc1ccc(CNC(=O)CCCCCN2CCN(c3ccc(F)cc3-c3ccc(C#N)cc3)CC2)cc1 0.23
O=C(CCOCCN1CCN(c2ncccc2-c2ccccc2)CC1)NCc1ccc(C(F)(F)F)cc1 0.48

Now consider a different compound.
logKw for `COc1ccc(-c2ccccc2N2CCN(CCCCCC(=O)NCc3ccc(C#N)cc3)CC2)cc1` ?
0.54

====

Listed next: entries and their corresponding pKi.
Assay: Displacement of [3H]-prazosin from adrenergic alpha 1 receptor in pig brain cortical membranes after 50 mins by microbeta counting analysis
Assay type: ADME, cell membranes, Sus scrofa
The scale used: pKi is minus the common logarithm of the concentration in molar units.

Use these answered entries as a reference point.
COc1ccc(-c2ccccc2N2CCN(CCCCCC(=O)NCc3ccc(OCCN4CCOCC4)cc3)CC2)cc1 7.59
COc1ccc(-c2ccccc2N2CCN(CCCCCC(=O)N[C@H](C)c3ccc(C#N)cc3)CC2)cc1 7.75
O=C(CCOCCN1CCN(c2ccccc2-c2ccccc2)CC1)NCc1ccc(C(F)(F)F)cc1 6.61

Given the compound `O=C(CCOCCN1CCN(c2ccccc2-c2ccccc2)CC1)NCc1ccncc1` , what is its reported pKi?
7.03

Tell me the measured pKi of `COCOc1ccc(CNC(=O)CCCCCN2CCN(c3ccccc3-c3ccccc3)CC2)cc1` , please.
7.70

Give its pKi value. Item: `COc1ccc(-c2ccccc2N2CCN(CCCCCC(=O)N[C@H](C)c3ccccc3)CC2)cc1`
7.44

pKi for `N#Cc1ccc(CNC(=O)CCOCCN2CCN(c3ccccc3-c3ccccc3)CC2)cc1` ?
8.03

Need pKi of `COCOc1ccc(CNC(=O)CCCCCN2CCN(c3ccccc3-c3ccc(OC)cc3)CC2)cc1` , thanks.
8.23

Please report the recorded pKi for `O=C(CCOCCN1CCN(c2cccnc2-c2ccc(F)cc2)CC1)NCc1ccc(C(F)(F)F)cc1` .
6.58

Fill blank: measured pKi of the compound `C[C@H](NC(=O)CCCCCN1CCN(c2ccccc2-c2ccccc2)CC1)c1ccccc1` is ____.
7.33

Which pKi is listed for `C[C@@H](NC(=O)CCCCCN1CCN(c2ccccc2-c2ccccc2)CC1)c1ccccc1` ?
7.44

Entry `N#Cc1ccc(CNC(=O)CCOCCN2CCN(c3cccnc3-c3ccc(F)cc3)CC2)cc1` : reported pKi = ?
6.04

pKi lookup needed for `N#Cc1ccc(CNC(=O)CCCCCN2CCN(c3ccc(F)cc3-c3ccc(C#N)cc3)CC2)cc1` , thanks.
8.49

Look up pKi: `O=C(CCCCCN1CCN(c2ccccc2-c2ccccc2)CC1)NCc1ccc(OCCO)cc1`
8.35
